biological target: Potassium voltage-gated channel subfamily H member 2 (Homo sapiens, UniProt Q12809); assay: Inhibition of human ERG expressed in CHO cells at holding potential of -80 mV by whole cell patch clamp assay
Sequence (Q12809 whole entry): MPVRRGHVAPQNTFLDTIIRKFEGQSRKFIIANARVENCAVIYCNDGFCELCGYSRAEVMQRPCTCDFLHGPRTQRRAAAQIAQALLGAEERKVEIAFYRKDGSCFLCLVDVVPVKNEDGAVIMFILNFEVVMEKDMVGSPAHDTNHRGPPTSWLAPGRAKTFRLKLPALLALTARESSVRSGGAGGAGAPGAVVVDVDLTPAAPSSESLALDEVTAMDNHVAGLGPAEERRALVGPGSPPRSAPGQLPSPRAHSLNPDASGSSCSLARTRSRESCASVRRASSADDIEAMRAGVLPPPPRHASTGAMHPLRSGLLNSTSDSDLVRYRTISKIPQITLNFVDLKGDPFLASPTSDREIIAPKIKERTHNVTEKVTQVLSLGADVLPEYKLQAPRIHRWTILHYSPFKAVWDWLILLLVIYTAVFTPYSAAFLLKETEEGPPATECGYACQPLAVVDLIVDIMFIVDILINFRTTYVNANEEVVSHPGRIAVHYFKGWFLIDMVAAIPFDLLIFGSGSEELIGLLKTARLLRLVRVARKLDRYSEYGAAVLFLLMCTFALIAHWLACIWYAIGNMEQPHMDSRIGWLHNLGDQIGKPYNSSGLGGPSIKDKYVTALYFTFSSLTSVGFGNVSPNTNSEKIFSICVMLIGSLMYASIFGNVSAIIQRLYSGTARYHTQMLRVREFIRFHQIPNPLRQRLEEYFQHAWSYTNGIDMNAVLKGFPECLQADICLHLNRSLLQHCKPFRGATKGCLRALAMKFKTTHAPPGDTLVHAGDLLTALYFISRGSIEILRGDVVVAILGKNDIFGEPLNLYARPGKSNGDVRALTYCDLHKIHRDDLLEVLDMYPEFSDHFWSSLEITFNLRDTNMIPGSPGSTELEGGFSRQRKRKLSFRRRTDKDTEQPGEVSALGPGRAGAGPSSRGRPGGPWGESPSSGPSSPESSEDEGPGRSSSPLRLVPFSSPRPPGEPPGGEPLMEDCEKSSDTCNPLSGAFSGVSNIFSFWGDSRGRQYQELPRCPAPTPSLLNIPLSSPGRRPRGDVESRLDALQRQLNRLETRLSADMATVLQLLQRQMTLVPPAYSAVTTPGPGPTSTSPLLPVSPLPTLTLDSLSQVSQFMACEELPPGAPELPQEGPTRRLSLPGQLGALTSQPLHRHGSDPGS
quantity_measured: IC50

So what does the record say about IC50 for c1ccc([C@]2(CCNCc3scc4c3CCC4)CCO[C@]3(CCOC3)C2)nc1 [US11124523, Example (+)-2] ?
> 40 µM

----------
biological target: Cytochrome P450 2C19 (Homo sapiens); experiment: Inhibition of CYP2C19 (unknown origin)
Sequence (P33261 whole entry): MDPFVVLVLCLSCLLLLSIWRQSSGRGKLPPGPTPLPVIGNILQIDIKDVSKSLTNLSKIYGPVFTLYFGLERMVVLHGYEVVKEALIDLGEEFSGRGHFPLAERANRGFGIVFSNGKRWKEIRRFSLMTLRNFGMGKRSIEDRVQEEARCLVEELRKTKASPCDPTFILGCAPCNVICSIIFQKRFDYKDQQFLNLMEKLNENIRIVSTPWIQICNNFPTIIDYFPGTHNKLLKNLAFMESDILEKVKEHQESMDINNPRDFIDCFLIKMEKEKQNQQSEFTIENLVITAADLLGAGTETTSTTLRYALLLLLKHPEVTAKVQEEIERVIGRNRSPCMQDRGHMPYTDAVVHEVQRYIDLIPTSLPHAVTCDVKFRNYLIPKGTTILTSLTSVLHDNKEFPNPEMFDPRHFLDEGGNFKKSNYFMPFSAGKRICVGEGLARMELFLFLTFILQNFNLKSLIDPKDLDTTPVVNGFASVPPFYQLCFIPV
pIC50: −log10 of the molar value.
quantity_measured: pIC50

Name the recorded pIC50 for c1ccc([C@]2(CCNCc3scc4c3CCC4)CCO[C@]3(CCOC3)C2)nc1 [US11124523, Example (+)-2] .
< 4.30

----------
biological target: Cytochrome P450 2C9 (Homo sapiens, UniProt P11712); assay: Inhibition of CYP2C9 (unknown origin)
Sequence (P11712 whole entry): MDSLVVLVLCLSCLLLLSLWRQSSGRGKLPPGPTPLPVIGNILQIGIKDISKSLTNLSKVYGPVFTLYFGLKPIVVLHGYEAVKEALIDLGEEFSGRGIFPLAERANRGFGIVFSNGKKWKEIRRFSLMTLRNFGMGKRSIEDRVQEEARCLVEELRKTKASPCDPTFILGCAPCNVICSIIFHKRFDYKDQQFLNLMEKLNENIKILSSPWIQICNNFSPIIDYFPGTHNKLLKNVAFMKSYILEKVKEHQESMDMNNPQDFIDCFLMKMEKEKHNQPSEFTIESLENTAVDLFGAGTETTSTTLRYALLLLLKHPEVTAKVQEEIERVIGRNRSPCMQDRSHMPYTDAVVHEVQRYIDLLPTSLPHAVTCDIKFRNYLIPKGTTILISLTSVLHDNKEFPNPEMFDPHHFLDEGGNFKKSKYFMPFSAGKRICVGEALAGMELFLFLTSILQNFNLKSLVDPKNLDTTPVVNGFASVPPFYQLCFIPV
quantity_measured: IC50

{"compound": "c1ccc([C@]2(CCNCc3scc4c3CCC4)CCO[C@]3(CCOC3)C2)nc1 [US11124523, Example (+)-2]", "system_under_test": "Cytochrome P450 2C9 (Homo sapiens, UniProt P11712)", "IC50": "> 50 µM"}

// below: IC50 requested for another compound
// returns reported IC50 for input Fc1ccc([C@]2(CCNCc3cccc(Cl)c3)CCO[C@]3(CCOC3)C2)nc1 [US11124523, Example (+)-16]
> 50 µM
